These data points were gathered from the supplement of paper PMC10567573.

protein stability index by entry:
B1: RIPK4 (parent)
chain: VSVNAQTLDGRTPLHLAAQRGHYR

# Variants of: B1
# experiment description: protein stability index of a GFP-peptide fusion (GPS, HEK-293T) (PSI 1-6); higher = more stable;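 further: lentivirally expressed fusions sorted by FACS into six bins by GFP to DsRed ratio, PSI derived from sequencing read proportions per bin multiplied by bin number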
# setup conditions: c terminus: a fixed tail appended
Number only, no unit.

mutation code	protein stability index
G21K	3.33
L16V	3.5
P13H	2.9
G21P	3.49
N4C	3.18
L16H	3.28
T7F	2.11
G10M	3.12

// lookup protein stability index for V3F
2.96

Can you check R11K next?
3.51
